Taken from patent US9309242B2.

Target: FGFR2 (h) (Homo sapiens)
Sequence (P21802 22-821): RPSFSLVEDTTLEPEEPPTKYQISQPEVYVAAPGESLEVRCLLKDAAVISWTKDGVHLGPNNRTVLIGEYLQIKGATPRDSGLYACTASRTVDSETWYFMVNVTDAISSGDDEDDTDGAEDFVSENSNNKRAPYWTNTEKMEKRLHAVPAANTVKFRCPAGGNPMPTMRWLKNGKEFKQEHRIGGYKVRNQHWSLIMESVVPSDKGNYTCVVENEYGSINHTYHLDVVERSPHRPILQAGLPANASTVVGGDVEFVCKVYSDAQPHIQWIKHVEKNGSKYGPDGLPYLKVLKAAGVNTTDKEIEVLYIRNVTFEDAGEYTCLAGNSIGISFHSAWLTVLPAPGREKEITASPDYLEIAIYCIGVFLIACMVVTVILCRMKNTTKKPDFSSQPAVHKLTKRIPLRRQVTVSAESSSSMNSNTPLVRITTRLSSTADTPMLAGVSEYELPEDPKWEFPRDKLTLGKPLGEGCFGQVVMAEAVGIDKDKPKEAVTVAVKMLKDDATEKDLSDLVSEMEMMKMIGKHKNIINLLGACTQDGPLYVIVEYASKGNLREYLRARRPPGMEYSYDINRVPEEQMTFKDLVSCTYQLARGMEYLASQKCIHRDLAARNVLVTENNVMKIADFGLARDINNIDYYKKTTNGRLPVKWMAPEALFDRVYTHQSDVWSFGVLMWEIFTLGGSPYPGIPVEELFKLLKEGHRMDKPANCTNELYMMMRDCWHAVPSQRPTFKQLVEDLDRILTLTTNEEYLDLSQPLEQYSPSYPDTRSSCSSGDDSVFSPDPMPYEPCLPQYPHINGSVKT
Experiment: FGFR2 (enzymatic assay), TR-FRET
Assay type: biochemical
Conditions: enzymatic assay; read-out: FGFR 2 pIC50 (converted)
Experimental: In a final reaction volume of 30 μL, FGFR2 (h) (150 ng/ml) was incubated with 50 mM HEPES pH 7.5, 6 mM MnCl2, 1 mM DTT, 0.1 mM Na3VO4, 0.01% Triton-X-100, 500 nM Btn-Flt3 and 0.4 μM ATP in the presence of compound (1% DMSO final).
// returns -1 unless IC50 is strictly below 3 nM, in which case 1

Q: I'd appreciate it if you could check whether COc1cc(OC)cc(N(Cc2nncn2CCO)c2ccc3ncc(-c4cnn(C)c4)nc3n2)c1 [Compound 204] has IC50 smaller than 3 nM.
Result: -1

Q: Report whether reported IC50 is lower than 3 nM (strictly) for COc1cc(OC)c(F)c(N(C)c2ccc3ncc(-c4cnn(C)c4)nc3n2)c1F (single isomer, unassigned) [Compound 254]
Result: 1

Q: Below 3 nM on IC50? Entry COc1cc(OC)c(F)c(N(CCN(C2COC2)C2COC2)c2ccc3ncc(-c4cnn(C)c4)nc3n2)c1F (single isomer, unassigned) [Compound 163]
Result: 1

Q: Given the entry COc1cc(OC)c(F)c(N(CCNC2COC2)c2ccc3ncc(-c4cnn(C)c4)nc3n2)c1F (single isomer, unassigned) [Compound 162] , would its reported IC50 be below 3 nM?
Result: 1

Q: Criterion: IC50 strictly below 3 nM. Is it met by CNCCn1/c(=N/c2c(F)c(OC)cc(OC)c2F)ccc2ncc(-c3cn[nH]c3)nc21 [Compound 121] ?
Result: 1

Q: Dear colleague, could you confirm whether IC50 of COc1cc(/N=c2\ccc3ncc(-c4cnn(C)c4)nc3n2CCN2CCCC2=O)cc(OC)c1 [Compound 150] falls below 3 nM? Thanks.
Result: 1

Q: Does the reported IC50 of COc1cc(OC)c(F)c(N(Cc2ncc[nH]2)c2ccc3ncc(-c4cnn(CCCN)c4)nc3n2)c1 [Compound 295] stay below 3 nM?
Result: 1

Q: Please check: IC50 for COc1cc(OC)cc(N(Cc2ncc[nH]2)c2ccc3ncc(-c4ccncc4)nc3n2)c1 [Compound 202] , strictly under 3 nM or not?
Result: 1

Q: Please indicate whether the reported IC50 of COc1cc(OC)c(F)c(N(Cc2ncc[nH]2)c2ccc3ncc(-c4ccccc4)nc3n2)c1 [Compound 200] is strictly below 3 nM.
Result: 1

Q: Just wondering, is IC50 of COc1cc(OC)cc(N(CC2COC2)c2ccc3ncc(-c4cnn(C)c4)nc3n2)c1 [Compound 142] below 3 nM?
Result: -1

Q: # check: IC50 < 3 nM for COc1cc(OC)c(F)c(N(CC(C)(C)O)c2ccc3ncc(-c4cnn(CC(C)(C)O)c4)nc3n2)c1 (single isomer, unassigned) [Compound 208]
Result: -1

Q: # check: IC50 < 3 nM for COc1cc(OC)c(F)c(N(CC2CCOC2)c2ccc3ncc(-c4cnn(C)c4)nc3n2)c1 (single isomer, unassigned) [Compound 170]
Result: 1

Q: Field: below-cutoff. Rule: recorded IC50 strictly less than 3 nM. Subject: COc1cc(OC)c(F)c(N(Cc2nn[nH]n2)c2ccc3ncc(-c4cnn(C)c4)nc3n2)c1 [Compound 140]
Result: -1
